Assay text: RP, Waters ACQUITY UPLC HSS T3, 150 × 2.1 mm, 1.7 µm, 30 °C, 0.4 mL/min, estimated dead time 0.83 min; A: water + 0.2% formic acid; B: 2% water + 98% acetonitrile + 0.2% formic acid; gradient (min/%B) 0/0 2.5/0 7.5/10 10/100 12/100 18/0 25/0
Condition: stereoisomer not certain
Reported property: LC retention time (min)

Answered examples (5):
In: Give recorded LC retention time. NCCSCC(N)C(=O)O (stereo unspecified)
Out: 1.26

In: Give recorded LC retention time. c1ccc2[nH]ccc2c1
Out: 10.2

In: Give recorded LC retention time. Cn1c[n+](C2OC(CO)C(O)C2O)c2nc(N)[nH]c(=O)c21 (stereo unspecified)
Out: 5.75

In: Give recorded LC retention time. OCC1OC(OCC2OC(O)C(O)C(O)C2O)C(O)C(O)C1O (stereo unspecified)
Out: 1.73

In: Give recorded LC retention time. O=C[C@@H](O)[C@H](O)[C@H](O)[C@H](O)CO
Out: 1.55

[I] O=c1c(O)c(-c2ccc(O)c(O)c2)oc2cc(O)cc(O)c12
[II] NC(=O)NC1NC(=O)NC1=O (stereo unspecified)
In: Param metric = LC retention time; output whichever of I , II has the minimum value. Write down the label of the entry you select.
Out: II
(II: 1.63 min, I: 9.79 min)

[I] COc1cc(C=O)ccc1O
[II] Nc1cccc(C(=O)O)c1
[III] NCCCC[C@H](N)C(=O)O
In: Hey, quick one: sort these by LC retention time, low to high? Provide the ranking by listing each label in its place in the requested order.
Out: III, II, I

The values you see were collected from the RepoRT retention time repository (doi:10.1002/minf.201400016).
